Tested on: Caco-2 monolayer permeability, A-to-B, LC-MS/MS
protocol_details: Inhibitors of 12-hLO: Caco-2 Permeability Profiling
measurement_conditions: stronger effect = higher value
attribute_measured: permeability Papp

Problem: Query for Caco-2 monolayer permeability, A-to-B, LC-MS/MS: what permeability Papp does the record show for CC(=O)NC(c1cccs1)c1cc(Br)c2cccnc2c1O (stereo unspecified) ?
Solution: 8.8 10^-6 cm/s
